Target System: PTP EPSILON (Homo sapiens)
Construct: made in house; host or cells: Sf-9 insect cells (pFastBac-G2T); a pGEX 6P-1 construct also existed
Sequence (P23469 80-393 limits assumed): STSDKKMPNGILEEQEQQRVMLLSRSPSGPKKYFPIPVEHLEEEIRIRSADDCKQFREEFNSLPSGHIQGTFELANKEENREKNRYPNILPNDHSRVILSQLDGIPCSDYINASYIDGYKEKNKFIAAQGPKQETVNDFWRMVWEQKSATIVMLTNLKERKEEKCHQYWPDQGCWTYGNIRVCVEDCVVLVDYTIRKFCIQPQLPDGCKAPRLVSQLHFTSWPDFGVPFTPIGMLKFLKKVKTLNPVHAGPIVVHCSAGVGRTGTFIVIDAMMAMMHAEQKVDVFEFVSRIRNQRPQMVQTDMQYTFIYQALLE
Assay Info: PTP IC50 assay, fluorescent substrate DiFMUP
Type: biochemical
Condition Description: DiFMUP as substrate, 25° C.; read-out: PTP IC50 Epilson
Label rule met when IC50 is strictly below 20 µM; otherwise label rule not met.

Examples from the recorded data:
Compound	Target System	Group Label
O=C(O)c1cc2cc(NS(=O)(=O)C(F)(F)F)ccc2[nH]1	PTP EPSILON (Homo sapiens)	rule not met
O=[N+]([O-])c1ccccc1NCC(O)COc1ccc(S(=O)(=O)C(F)(F)F)cc1[N+](=O)[O-] (stereo not shown)	PTP EPSILON (Homo sapiens)	rule not met
O=C(O)c1cccc(NC(=O)c2cc3cc(NS(=O)(=O)C(F)(F)F)ccc3[nH]2)c1	PTP EPSILON (Homo sapiens)	rule met
O=C(O)Cn1c(C(=O)O)cc2cc(NS(=O)(=O)C(F)(F)F)ccc21	PTP EPSILON (Homo sapiens)	rule not met
CCOC(=O)c1cc2cc(NS(=O)(=O)C(F)(F)F)ccc2n1C	PTP EPSILON (Homo sapiens)	rule not met

Query: # TODO verify IC50 < 20 µM strictly for this compound: `O=C(O)COc1ccc(S(=O)(=O)c2ccc(Oc3ccc(S(=O)(=O)C(F)(F)F)cc3[N+](=O)[O-])cc2)cc1`
Result: rule not met

Query: # TODO verify IC50 < 20 µM strictly for this compound: `CCn1c(C(=O)O)nc2cc(S(=O)(=O)C(F)(F)F)ccc21`
Result: rule not met

Query: # TODO verify IC50 < 20 µM strictly for this compound: `Cc1cc2cc(NS(=O)(=O)C(F)(F)F)ccc2n1CC(=O)Nc1ccc(C(=O)O)cc1`
Result: rule not met

Query: # TODO verify IC50 < 20 µM strictly for this compound: `CCOC(=O)c1cc2cc(NS(=O)(=O)C(F)(F)F)ccc2n1CC(=O)OC(C)(C)C`
Result: rule met

* * *

Target System: PTP PEST (Homo sapiens, UniProt Q05209)
Sequence (Q05209 1-343 limits assumed): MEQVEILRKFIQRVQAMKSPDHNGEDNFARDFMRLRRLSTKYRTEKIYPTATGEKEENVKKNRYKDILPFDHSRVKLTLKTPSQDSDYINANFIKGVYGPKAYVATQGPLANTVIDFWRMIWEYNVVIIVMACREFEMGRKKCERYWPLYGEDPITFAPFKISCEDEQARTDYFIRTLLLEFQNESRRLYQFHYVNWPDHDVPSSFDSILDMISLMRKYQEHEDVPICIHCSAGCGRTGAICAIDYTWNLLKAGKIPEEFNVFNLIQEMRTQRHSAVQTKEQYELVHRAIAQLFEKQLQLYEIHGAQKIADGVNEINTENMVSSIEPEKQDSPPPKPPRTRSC
Answer each item with its documented pIC50.
Answers are plain numbers, as −log10 of the molar value.

Smiles Structure	pIC50
O=S(=O)(Nc1ccc(Oc2ccc(Oc3ccc(NS(=O)(=O)C(F)(F)F)cc3)cc2)cc1)C(F)(F)F	6.01
O=S(=O)(Nc1ccc(CCc2ccc(NS(=O)(=O)C(F)(F)F)cc2)cc1)C(F)(F)F	4.88
O=S(=O)(Nc1ccc(OCCCCOc2ccc(NS(=O)(=O)C(F)(F)F)cc2)cc1)C(F)(F)F	5.17

Now turn to the next molecule.
Query: // query pIC50 value for entry `O=S(=O)(Nc1ccc(OCCCOc2ccc(NS(=O)(=O)C(F)(F)F)cc2)cc1)C(F)(F)F`
Result: 5.10
